Cited source: paper PMC7698860

GSK-3β (Oryctolagus cuniculus, UniProt A0A5F9DUX8): reported pIC50 for various molecules.
Sequence (A0A5F9DUX8 entry or part of it): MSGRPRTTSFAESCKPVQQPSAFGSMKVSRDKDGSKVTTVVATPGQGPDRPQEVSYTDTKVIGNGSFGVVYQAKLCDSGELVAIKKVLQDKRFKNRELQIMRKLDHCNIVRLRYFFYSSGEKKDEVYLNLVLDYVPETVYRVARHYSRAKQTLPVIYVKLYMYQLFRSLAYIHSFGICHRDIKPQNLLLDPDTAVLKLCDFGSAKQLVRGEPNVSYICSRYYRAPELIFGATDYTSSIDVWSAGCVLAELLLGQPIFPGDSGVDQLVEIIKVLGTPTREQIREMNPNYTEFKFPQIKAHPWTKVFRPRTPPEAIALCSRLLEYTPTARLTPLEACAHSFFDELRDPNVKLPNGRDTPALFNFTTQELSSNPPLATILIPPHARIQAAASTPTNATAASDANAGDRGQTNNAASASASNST
pIC50: −log10 of the molar value.

Prompt: Value lookup for pIC50; key = Cc1sc2nc3c(SC(C)C(=O)O)cc(C(=O)c4ccccc4O)cn3c(=O)c2c1C (stereo not shown)
Response: 3.70

Prompt: Quick one: pIC50 for `O=C(O)c1ccc(N2CCN(c3cc(NCCP(=O)(O)O)c4c5c(onc35)-c3ccccc3C4=O)CC2)cc1` ?
Response: 5.40 to 6.00

Prompt: Could you share which pIC50 value was measured for `O=C1c2ccccc2-c2onc3c(N4CCN(c5ccc(O)cc5)CC4)cc(NCCP(=O)(O)O)c1c23` ?
Response: 5.40 to 6.00

Prompt: Could you tell me which pIC50 is on file for `O=C(O)CCNc1cc(N2CCN(C(=O)c3ccco3)CC2)c2noc3c2c1C(=O)c1ccccc1-3` ?
Response: < 4.68
